B1: Formin-binding protein 4, residues 593 to 636; numbered along this chain, Q8N3X1 (parent)
chain: EINATPKGWSCHWDRDHRRYFYVNEQSGESQWEFPDGEEEEEES

Variants of: B1
Assay: abundance fitness (aPCA) (normalised: wild type 0, dead -1); higher = more abundant; growth selection in yeast, the domain comes from the species named
Settings: Homo sapiens
assay endpoint: abundance fitness
Hey, just send me the number, nothing else.

# input variant: `E41L` ; wanted: its abundance fitness -0.1

# input variant: `Y22M` ; wanted: its abundance fitness -0.492

# input variant: `P6G` ; wanted: its abundance fitness -0.587

# input variant: `F21C` ; wanted: its abundance fitness 0.058

# input variant: `E42F` ; wanted: its abundance fitness -0.368

# input variant: `E29H` ; wanted: its abundance fitness -0.016

# input variant: `E38P` ; wanted: its abundance fitness 0.056

# input variant: `G28L` ; wanted: its abundance fitness -0.363

# input variant: `F34V` ; wanted: its abundance fitness -0.044

# input variant: `S10D` ; wanted: its abundance fitness -0.465

# input variant: `E39S` ; wanted: its abundance fitness -0.056

# input variant: `R15D` ; wanted: its abundance fitness -0.007

# input variant: `H12K` ; wanted: its abundance fitness -0.179

# input variant: `N3R` ; wanted: its abundance fitness -0.169

# input variant: `N24C` ; wanted: its abundance fitness -0.226

# input variant: `G28C` ; wanted: its abundance fitness -0.61

# input variant: `E41D` ; wanted: its abundance fitness -0.28

# input variant: `N24D` ; wanted: its abundance fitness -0.362

# input variant: `E39T` ; wanted: its abundance fitness 0.11

# input variant: `C11V` ; wanted: its abundance fitness -0.257

# input variant: `E43N` ; wanted: its abundance fitness -0.08

# input variant: `W32D` ; wanted: its abundance fitness -0.364

# input variant: `H12N` ; wanted: its abundance fitness -0.287

# input variant: `S27E` ; wanted: its abundance fitness -0.427

# input variant: `D14Q` ; wanted: its abundance fitness -0.667

# input variant: `E38S` ; wanted: its abundance fitness 0.045

# input variant: `C11K` ; wanted: its abundance fitness -0.025

# input variant: `Q31S` ; wanted: its abundance fitness -0.293

# input variant: `D14G` ; wanted: its abundance fitness -0.963

# input variant: `S44R` ; wanted: its abundance fitness 0.025

# input variant: `P35L` ; wanted: its abundance fitness -0.801

# input variant: `H17W` ; wanted: its abundance fitness -0.486

# input variant: `E33S` ; wanted: its abundance fitness -0.184

# input variant: `E33D` ; wanted: its abundance fitness -0.237

# input variant: `E38G` ; wanted: its abundance fitness -0.051

# input variant: `E41M` ; wanted: its abundance fitness -0.064

# input variant: `K7D` ; wanted: its abundance fitness -0.123

# input variant: `S30P` ; wanted: its abundance fitness -0.174

# input variant: `H17V` ; wanted: its abundance fitness -0.208

# input variant: `G28T` ; wanted: its abundance fitness -0.728

# input variant: `P35K` ; wanted: its abundance fitness -0.482

# input variant: `E42Y` ; wanted: its abundance fitness -0.152

# input variant: `W32H` ; wanted: its abundance fitness -0.157

# input variant: `A4E` ; wanted: its abundance fitness 0.081

# input variant: `S10H` ; wanted: its abundance fitness -0.502

# input variant: `E38I` ; wanted: its abundance fitness -0.021
